I'd be grateful if you could share measured melting point for these entries.

Working through the 2 compounds below one at a time, give melting point for each.
1. CCN1C(=O)C(=O)N(c2c(C)cccc2C)C1=S [Example 10]
2. Cc1cccc(C)c1N1C(=O)C(=O)N(C)C1=S [Example 6]

stdout:
1: 103 to 105 °C; 2: 144 to 146 °C

Hi team, please reply with melting point for each item in this list.
1. CCN1C(=O)C(=O)N(c2ccc(F)cc2)C1=S [Example 7]
2. C#CCN1C(=O)C(=O)N(c2cc(Cl)ccc2C)C1=S [Example 9]

stdout:
["172 to 174 °C", "162 to 164 °C"]

Fill in melting point for each of the 6 compounds listed.
1. CCN1C(=O)C(=O)N(c2cc(F)ccc2C)C1=S [Example 4]
2. Cc1ccc(Cl)cc1N1C(=O)C(=O)N(C)C1=S [Example 5]
3. CCN1C(=O)C(=O)N(c2cc(Cl)ccc2C)C1=S [Example 3]
4. CCOC(=O)CON1C(=O)C(=O)N(c2ccccc2SC)C1=S [Example 2]
5. CCN1C(=O)C(=O)N(c2ccc(Cl)cc2C)C1=S [Example 8]
6. CCOC(=O)CON1C(=O)C(=O)N(c2cc(Cl)ccc2C)C1=S [Example 1]

stdout:
152 to 153 °C
171 to 173 °C
173 to 174 °C
112 to 114 °C
161 to 162 °C
157 to 159 °C

###

For each of the compounds below, state its change in vivo at 100 mg/kg.
System: blood serum HDL cholesterol
Experiment: Determination of serum HDL cholesterol in cholesterol/cholic acid-fed rats
Assay type: in vivo
Settings: Rattus norvegicus, feed or water, 192 h; male Sprague-Dawley rats, diet supplemented with 0.25% cholic acid and 1.0% cholesterol; 100 mg/kg mixed in diet; eight days; serum HDL-C by FPLC; read-out: HDL Cholesterol Level Increase (%)
Answers are plain numbers, in %.

Check out these entries, answers already filled in.
CCN1C(=O)C(=O)N(c2cc(F)ccc2C)C1=S [Example 4] | 203
Cc1ccc(Cl)cc1N1C(=O)C(=O)N(C)C1=S [Example 5] | 186
CCOC(=O)CON1C(=O)C(=O)N(c2ccccc2SC)C1=S [Example 2] | 196
Cc1cccc(C)c1N1C(=O)C(=O)N(C)C1=S [Example 6] | 227
CCN1C(=O)C(=O)N(c2c(C)cccc2C)C1=S [Example 10] | 36
CCN1C(=O)C(=O)N(c2ccc(F)cc2)C1=S [Example 7] | 199

// below: change in vivo at 100 mg/kg requested for another compound
stdin: What value of measured change in vivo at 100 mg/kg is listed for CCOC(=O)CON1C(=O)C(=O)N(c2cc(Cl)ccc2C)C1=S [Example 1] ?
stdout: 242
